- TEST_PROTOCOL: Terminal half life in male Balb/c mouse at 1 mg/kg, iv by LC-MS/MS analysis
- Assay type: ADME, organism-based
- CONDITION_SUMMARY: in vivo, read-out: beta t1/2 (converted)
MEASURED_ATTRIBUTE: half-life (min)

> print(dat)
                               entry.smiles  unit.text  recorded.measurement
1  CCCc1nn(C)c2c(Nc3ccc(O)cc3)nc(-c3ccc([N+](=O)[O-])o3)nc12        min                    30

====

- Tested on: Staphylococcus aureus
- TEST_PROTOCOL: Antibacterial activity against methicillin-resistant Staphylococcus aureus ATCC 15187 incubated for 24 hrs by Alamar blue staining based microdilution method
- Format: functional
MEASURED_ATTRIBUTE: MIC (µg/mL)

> print(dat)
                                entry.smiles  measured.attribute  modifier.sign  recorded.measurement
 1  CCCc1nn(C)c2c(N3CCC(c4ccccc4)CC3)nc(-c3ccc([N+](=O)[O-])o3)nc12                 MIC              >                    32
 2  CCCc1nn(C)c2c(NCCCCCCO)nc(-c3ccc([N+](=O)[O-])o3)nc12                 MIC              =                     2
 3  CCCc1nn(C)c2c(Nc3ccc(Br)cc3)nc(-c3ccc([N+](=O)[O-])o3)nc12                 MIC              >                    32
 4  CCCc1nn(C)c2c(Nc3cccc(O)c3)nc(-c3ccc([N+](=O)[O-])o3)nc12                 MIC              =                     1
 5  CCCc1nn(C)c2c(Nc3cccc(F)c3)nc(-c3ccc([N+](=O)[O-])o3)nc12                 MIC              =                     4
 6  CCCc1nn(C)c2c(N3CCN(c4cccc(O)c4)CC3)nc(-c3ccc([N+](=O)[O-])o3)nc12                 MIC              >                    32
 7  CCCc1nn(C)c2c(N3CCC(O)CC3)nc(-c3ccc([N+](=O)[O-])o3)nc12                 MIC              =                   0.5
 8  CCCc1nn(C)c2c(NCCN3CCCCC3)nc(-c3ccc([N+](=O)[O-])o3)nc12                 MIC              >                    32
 9  CCCc1nn(C)c2c(Nc3ccncc3)nc(-c3ccc([N+](=O)[O-])o3)nc12                 MIC              =                     4
10  CCCc1nn(C)c2c(N3CCC(CO)CC3)nc(-c3ccc([N+](=O)[O-])o3)nc12                 MIC              >                    32
11  CCCc1nn(C)c2c(NCc3ccc(OC)c(F)c3)nc(-c3ccc([N+](=O)[O-])o3)nc12                 MIC              >                    32
12  CCCc1nn(C)c2c(N3CCCCC3)nc(-c3ccc([N+](=O)[O-])o3)nc12                 MIC              >                    32
13  CCCc1nn(C)c2c(NCc3ccc(OC)cc3)nc(-c3ccc([N+](=O)[O-])o3)nc12                 MIC              >                    32
14  CCCc1nn(C)c2c(NCCCO)nc(-c3ccc([N+](=O)[O-])o3)nc12                 MIC              =                     2
15  CCCc1nn(C)c2c(=O)[nH]c(-c3ccc([N+](=O)[O-])o3)nc12                 MIC              =                     8
16  CCCc1nn(C)c2c(Nc3ccc(O)cc3)nc(-c3ccc([N+](=O)[O-])o3)nc12                 MIC              =                  0.15
17  CCCc1nn(C)c2c(N3CCCC3)nc(-c3ccc([N+](=O)[O-])o3)nc12                 MIC              >                    32
18  CCCc1nn(C)c2c(N3CCC(CCO)CC3)nc(-c3ccc([N+](=O)[O-])o3)nc12                 MIC              >                    32
19  CCCc1nn(C)c2c(N3CCN(C)CC3)nc(-c3ccc([N+](=O)[O-])o3)nc12                 MIC              >                    32
